A collection of molecules and their measured pIC50
- experimentalTarget: human ADAMTS4 (Homo sapiens (Human), UniProt O75173)
- Sequence (O75173 213-837): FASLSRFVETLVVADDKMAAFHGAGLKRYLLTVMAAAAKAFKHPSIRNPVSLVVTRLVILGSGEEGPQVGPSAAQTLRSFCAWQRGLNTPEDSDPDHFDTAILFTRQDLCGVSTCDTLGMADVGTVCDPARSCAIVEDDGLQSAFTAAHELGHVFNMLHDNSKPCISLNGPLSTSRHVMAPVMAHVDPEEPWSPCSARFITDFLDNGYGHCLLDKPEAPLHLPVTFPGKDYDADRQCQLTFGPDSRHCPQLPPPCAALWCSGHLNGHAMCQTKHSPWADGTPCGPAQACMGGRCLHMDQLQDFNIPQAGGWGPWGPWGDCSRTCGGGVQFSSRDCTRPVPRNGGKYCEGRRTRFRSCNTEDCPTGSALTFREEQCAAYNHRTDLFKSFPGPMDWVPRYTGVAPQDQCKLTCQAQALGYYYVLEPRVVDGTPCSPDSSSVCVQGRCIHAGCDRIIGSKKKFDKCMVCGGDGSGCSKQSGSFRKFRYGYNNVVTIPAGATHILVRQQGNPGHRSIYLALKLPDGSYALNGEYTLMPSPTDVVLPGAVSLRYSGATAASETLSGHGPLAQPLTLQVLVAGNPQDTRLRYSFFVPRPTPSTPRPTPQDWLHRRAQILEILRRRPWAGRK
- assayProtocol: hADAMTS-4 TBIS-1 cleavage assay, Protocol 2
- Type: biochemical
pIC50: −log10 of the molar value.

These recorded examples may help you get a feel for the data.
>>> result("COCC1(CC(C)C(=O)N2CCN(c3ccc(Cl)c(OC)c3)[C@@H](C)C2)NC(=O)NC1=O (mixture of isomers)")
"7.30 to 7.60"
>>> result("COc1cc(F)cc(N2CCN(C(=O)CCC3(c4cccnc4)NC(=O)NC3=O)CC2)c1 (stereo not shown)")
"7.00 to 7.30"
>>> result("COc1cc(N2CCN(C(=O)CC[C@@]3(C)NC(=O)NC3=O)C[C@@H]2C)cc(C)c1Cl")
"7.00 to 7.30"
>>> result("COc1cccc(N2CCN(C(=O)CCC3(c4ccccn4)NC(=O)NC3=O)CC2)c1 (stereo not shown)")
"7.00 to 7.30"

Proceed to the following item.
pIC50 for COC[C@]1(C[C@H](C)C(=O)N2CCN(c3cc(F)c(Cl)c(OC)c3)[C@@H](C)C2)NC(=O)NC1=O (mixture of isomers) is 7.00 to 7.30

---

- experimentalTarget: human MMP13 (Homo sapiens (Human), UniProt P45452)
- assayProtocol: hMMP13 assay, Protocol 2 (390 MMP FRET Substrate I, Enzo enzyme)
- Assay type: biochemical
- statedConditions: Protocol 2, human MMP13 (Enzo Life Sciences), read-out: hMMP-13 potency IC50
pIC50: −log10 of the molar value.
endpointLabel: pIC50

Summary line: "COC[C@]1(C[C@H](C)C(=O)N2CCN(c3cc(F)c(Cl)c(OC)c3)CC2)NC(=O)NC1=O" , human MMP13 (Homo sapiens (Human), UniProt P45452), reported pIC50 = < 7.00

---

- experimentalTarget: human ADAMTS-5 (Homo sapiens (Human))
- Sequence (Q9UNA0 262-930): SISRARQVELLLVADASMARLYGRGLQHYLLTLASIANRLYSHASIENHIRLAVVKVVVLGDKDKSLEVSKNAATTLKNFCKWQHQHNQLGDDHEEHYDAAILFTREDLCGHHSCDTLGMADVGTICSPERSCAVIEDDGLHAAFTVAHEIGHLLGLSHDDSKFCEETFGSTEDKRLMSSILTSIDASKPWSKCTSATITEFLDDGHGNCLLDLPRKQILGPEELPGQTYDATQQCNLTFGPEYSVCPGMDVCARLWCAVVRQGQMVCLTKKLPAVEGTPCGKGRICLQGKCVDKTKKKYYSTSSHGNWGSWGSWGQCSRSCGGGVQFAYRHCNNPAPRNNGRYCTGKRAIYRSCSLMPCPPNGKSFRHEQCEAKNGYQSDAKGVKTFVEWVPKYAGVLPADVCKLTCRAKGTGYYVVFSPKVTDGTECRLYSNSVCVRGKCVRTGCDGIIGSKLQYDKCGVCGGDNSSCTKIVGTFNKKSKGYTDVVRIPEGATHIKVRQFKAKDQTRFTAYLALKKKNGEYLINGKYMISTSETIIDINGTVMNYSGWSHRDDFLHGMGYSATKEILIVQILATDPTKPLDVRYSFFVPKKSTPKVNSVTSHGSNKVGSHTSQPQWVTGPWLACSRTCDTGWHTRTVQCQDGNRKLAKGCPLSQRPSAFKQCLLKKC
- assayProtocol: hADAMTS-5 TBIS-1 cleavage assay, Protocol 3
- Format: biochemical
- statedConditions: 90 min at 37° C., read-out: hADAMTS-5 potency IC50
pIC50: −log10 of the molar value.
endpointLabel: pIC50

>>> result("COc1cc(OC)cc(N2CCN(C(=O)CC[C@H]3NC(=O)NC3=O)C[C@@H]2C)c1")
"< 7.00"
>>> result("CC[C@]1(C[C@H](C)C(=O)N2CCN(c3cc(F)c(F)c(OC)c3)CC2)NC(=O)NC1=O")
"7.30 to 7.60"
>>> result("COc1ccc(C)c(N2CCN(C(=O)CC[C@H]3NC(=O)NC3=O)C[C@@H]2C)c1")
"< 7.00"

pIC50 for COc1ccc(C)c(N2CCN(C(=O)CCC3(C)NC(=O)NC3=O)C[C@@H]2C)c1 (stereo partly shown) is < 7.00

pIC50 for "COc1cc(Cl)c(Cl)cc1N1CCN(C(=O)CC[C@@]2(C)NC(=O)NC2=O)CC1" is < 7.00

pIC50 for "COc1cc(N2CCN(C(=O)CC[C@]3(C)NC(=O)NC3=O)C[C@@H]2C)ccc1Cl" is < 7.00

pIC50 for "CCOc1cc(N2CCN(C(=O)CC[C@H]3NC(=O)NC3=O)C[C@@H]2C)cc(OC)c1Cl" is < 7.00

pIC50 for "CCOc1cc(N2CCN(C(=O)CC[C@@]3(C)NC(=O)NC3=O)C[C@@H]2C)cc(OC)c1Cl" is < 7.00

Every entry's value here was drawn from patent US10829478B2.
